- systemName: Virion infectivity factor (Human immunodeficiency virus type 1 group M subtype B (isolate BH10)) + Virion infectivity factor (Human immunodeficiency virus type 1 group M subtype B (isolate BRU/LAI)) + Virion infectivity factor (Human immunodeficiency virus type 1 group M subtype B (isolate PCV12)) + Virion infectivity factor (Human immunodeficiency virus type 1 group M subtype B (isolate HXB2)) + DNA dC->dU-editing enzyme APOBEC-3G (Homo sapiens) (UniProt P69720+P69721+P69722+P69723+Q9HC16)
- experimentNotes: inhibitors of Vif binding to APOBEC3G peptide, primary screen, biochemical, TR-FRET, GST-Vif 1-94, biotin-A3G peptide, dose response retest (AID 1117319);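 further: Vif residues 1-94 fused to GST binding biotinylated APOBEC3G peptide 110-148; 0% = full assay without inhibitor and 100% = GST in place of GST-Vif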
- assaySetup: stronger effect = higher value
Out of some 260,000 compounds screened, about 1,500 (0.58%) were called active. About 5% were inconclusive and are not listed. Not all results are given here. Potency and affinity values are given separately.
metric: inhibition (%)
Give the value, in units of %, as a plain number.

Reported inhibition, compound CC1CCC2(CC1)NC(=O)N(CC(=O)NCc1ccc3c(c1)OCO3)C2=O (centres undefined) : ____ -3.28

Entry C#CC(C)OC(=O)Nc1cnccc1C(F)(F)F (centres undefined) please 31.2

Entry CC(=C\C(=O)O)/C(=C/c1ccco1)C(=O)O please 29.9

Entry CC1c2ccccc2N(NC(=O)Cc2ccccc2)C1C (centres undefined) please 1.5

Entry O=C(COc1ccccc1)NC(Cc1c[nH]c2ccccc12)C(=O)O (centres undefined) please 7.79

Entry CCCCCCC(=O)Nc1ccc(Br)cn1 please 22.8

Entry Cc1cc(C)nc(NN=CC2=C(N3CCOCC3)/C(=C/c3ccc(Cl)cc3)CC2)n1 please 17.2

Entry COC(=O)c1ccccc1NC(=O)CCS(=O)(=O)c1ccc(Br)s1 please -6.38

Entry O=C(Nc1ccc(Oc2ccccc2)cc1)c1ccc(Cn2c(=O)[nH]c3ccsc3c2=O)cc1 please -6.11

Entry CN1CCN(C(=O)c2cc(-c3ccco3)on2)CC1 please -6.26

Entry Cc1cc(SCC(=O)N/N=C/c2ccc(O)cc2O)c(C)cc1Br please 31.7

Entry CC1(C)N=C(c2ccccc2)C(=O)N1 please 1.67

Entry Nc1nc(-c2ccco2)cs1 please -0.78

Entry Cc1ccccc1N(CC(=O)NCCSCc1ccco1)S(C)(=O)=O please 3.05

Entry CC1CCN(S(=O)(=O)c2ccc(C(C)C)cc2)CC1 please -4.55

Entry Cc1cc(C)nc(N/N=C/c2ccc(Cl)cc2)n1 please -3.39

Entry CCCCOc1ccc(C(=O)NN2C(=O)NC3(CCCCC3)C2=O)cc1OC please 2.72

Entry Cc1cc(C(F)(F)F)n2ncc(C(=O)O)c2n1 please -3.78

Entry Cc1cc(C)nc(-n2ncc3c2CCCC3=O)n1 please -7.41

Entry COc1ccc(OC)c(-c2[nH]nc3c2C(c2ccco2)C(C#N)=C(N)O3)c1 (centres undefined) please 17.4

Entry NC(=O)Cc1ccc(C(=O)c2ccc(F)cc2)s1 please -4.28

Entry Cc1ccc(N(CC(=O)NCCSCc2ccco2)S(=O)(=O)c2ccc(C)cc2)cc1 please -4.1

Entry COc1ccc(/C=C2\C(=O)NCC(=O)N2Cc2ccccc2)cc1 please -2.05

Entry CCOC(=O)c1ccccc1NS(=O)(=O)c1ccc(S(=O)(=O)N2CCCC2)cc1 please 2.58

Entry Cc1cc(C(F)(F)F)n2nc(C)c(-c3ccc(Cl)cc3)c2n1 please -0.47

Entry Cc1cc(SCC(=O)N/N=C/c2ccc(O)c(O)c2)c(C)cc1Br please 7.89

Entry O=C(CN(C(=O)Cn1nnc(-c2ccc(F)cc2)n1)c1cnc2ccccc2c1)NCC1CCCO1 (centres undefined) please -11.4

Entry O=C(NCC(c1ccco1)N1CCCC1)c1cn(-c2ccccc2)nc1-c1ccc(F)cc1 (centres undefined) please -3.8

Entry CC(=O)Oc1cc2c(cc1OC(C)=O)C(=O)CCCC2 please -3.59
